Test system: Mycobacterium tuberculosis
Experiment: Antituberculosis activity against Mycobacterium tuberculosis H37Rv under aerobic conditions by microplate alamar blue assay
Assay type: functional
Readings of MIC for the listed compounds

The cases that follow already have their MIC on record.
O=[N+]([O-])c1cn2c(n1)OC[C@@H](OCCCc1ccc(OCc3ccccc3)cc1)C2    0.5 µM
O=[N+]([O-])c1cn2c(n1)OC[C@@H](Oc1cccc(-c3ccc(OC(F)F)cc3)n1)C2    0.52 µM

query: What measured MIC goes with CC(O[C@@H]1COc2nc([N+](=O)[O-])cn2C1)c1ccc(-c2ccc(C(F)(F)F)cc2)cc1 (stereo partly drawn) ?
result: 0.18 µM

---

System: Mycobacterium tuberculosis
Experiment: Antituberculosis activity against Mycobacterium tuberculosis H37Rv under aerobic conditions by microplate alamar blue assay
Assay type: functional
Readings of MIC for the listed molecules
Kindly provide the numeric value in µM only, without the unit symbol.

O=[N+]([O-])c1cn2c(n1)OC[C@@H](OCCCC#Cc1ccc(-c3ccc(OC(F)(F)F)cc3)cc1)C2    0.055
O=[N+]([O-])c1cn2c(n1)OC[C@@H](OCC#Cc1ccc(OCc3ccccc3)cc1)C2    0.09
O=[N+]([O-])c1cn2c(n1)OC[C@@H](Oc1ncc(-c3ccc(C(F)(F)F)nc3)cn1)C2    1.3

query: What measured MIC goes with `O=[N+]([O-])c1cn2c(n1)OC[C@@H](OCC#Cc1ccc(-c3ccc(C(F)(F)F)cc3)cn1)C2` ?
result: 0.02

query: What measured MIC goes with `O=[N+]([O-])c1cn2c(n1)OC[C@@H](OCC#Cc1cccc(-c3ccc(C(F)(F)F)nc3)c1)C2` ?
result: 0.12

---

Readings of solubility for the listed compounds
Assay: Aqueous solubility of the compound in water at pH 7 by HPLC analysis
Type: physicochemical
Kindly provide the numeric value in µg/mL only, without the unit symbol.

O=[N+]([O-])c1cn2c(n1)OC[C@@H](OCCOc1ccc(-c3ccc(OC(F)(F)F)cc3)cc1)C2    0.68
O=[N+]([O-])c1cn2c(n1)OC[C@@H](Oc1ccc(-c3ccc(OC(F)(F)F)cc3)cn1)C2    0.24
O=[N+]([O-])c1cn2c(n1)OC[C@@H](Oc1ccc(-c3ccc(OC(F)(F)F)cc3)cc1)C2    0.33
O=[N+]([O-])c1cn2c(n1)OC[C@@H](OCC#Cc1ccc(-c3ccc(OC(F)(F)F)cc3)cn1)C2    0.05
O=[N+]([O-])c1cn2c(n1)OC[C@@H](OCCCc1ccc(OC(F)(F)F)cc1)C2    11
O=[N+]([O-])c1cn2c(n1)OC[C@@H](OCc1ccc(C(F)(F)F)nc1)C2    68
O=[N+]([O-])c1cn2c(n1)OC[C@@H](OC/C=C/c1ccc(OCc3ccccc3)cc1)C2    0.06
CC(O[C@@H]1COc2nc([N+](=O)[O-])cn2C1)c1ccc(-c2ccc(OC(F)(F)F)cc2)cc1 (stereo not given in full)    0.84
O=[N+]([O-])c1cn2c(n1)OC[C@@H](OCCOc1ccc(OCc3ccccc3)cc1)C2    1.7

query: What measured solubility goes with `O=[N+]([O-])c1cn2c(n1)OC[C@@H](OCCCC#Cc1ccc(OC(F)(F)F)cc1)C2` ?
result: 0.09
